system: CP256; assay: qHTS profiling for inhibitors of Plasmodium falciparum proliferation (AID 504749); further: nearly all actives have a fitted effect of over 60% in size; conditions: P. falciparum in erythrocytes, SYBR Green DNA, 72 h; series mostly up to 28.7 µM
Records with an inconclusive call do not appear. Active and inactive are the calls of the source. The call rests on the fitted dose curve; in most records, active means well fitted inhibition curve with a large enough effect; inconclusive means small, poorly fitted or top-dose-only effect; inactive means flat fitted curve, though single readings scatter.
Outcome codes: active, inactive

compound	label.class
NCCO/C=C/[C@H](N)C(=O)O	inactive
CC(=O)NCCCS(=O)(=O)O	inactive
CC(C)[C@@H](N)C(=O)O	inactive
O=C(NCCNCC(O)COc1ccc(O)cc1)N1CCOCC1 (stereo not drawn)	inactive
COc1ccc(-c2noc(CC(=O)O)c2-c2ccc(OC)cc2)cc1	inactive
O=C1c2ccccc2C(=O)C1c1ccc(F)cc1	inactive
Nc1ncnc2c1ncn2[C@H]1CC[C@@H](CO)O1	inactive
C=CC[N+]1([C@H]2C[C@H]3[C@@H]4CC[C@H]5C[C@H](O)[C@@H](N6CCOCC6)C[C@]5(C)[C@H]4CC[C@]3(C)[C@H]2OC(C)=O)CCCC1	active
CCOC(=O)c1c[nH]c2cc(OCC(C)C)c(OCC(C)C)cc2c1=O	active
CO	inactive
N=C(N)c1ccc(/C=C/c2ccc(C(=N)N)cc2O)cc1	active
C[C@H](O)CN(C)C	inactive
NCC[C@H](O)C(=O)N[C@@H]1C[C@H](N)[C@@H](O[C@H]2O[C@H](CN)CC[C@H]2N)[C@H](O)[C@H]1O[C@H]1O[C@H](CO)[C@@H](O)[C@H](N)[C@H]1O	inactive
Cc1c(Cl)cccc1Nc1ncccc1C(=O)O	inactive
CCCCCCCCCCCCCCCCCCCCCC(=O)Nc1ccn([C@@H]2O[C@H](CO)[C@@H](O)[C@@H]2O)c(=O)n1	inactive
CC12CCC(C[N+](C)(CCC[N+](C)(C)C)C1)C2(C)C (stereo not drawn)	inactive
CCCCCCCCCCCCCCCCCC[N+](C)(C)CCC[Si](OC)(OC)OC	inactive
Cc1cc(=O)c(C(=O)N[C@@H](C(=O)N[C@@H]2C(=O)N3C(C(=O)O)=C(CSc4nnnn4C)CS[C@H]23)c2ccc(O)cc2)c[nH]1	inactive
OC[C@H]1O[C@@H]2O[C@H]3[C@H](O)[C@@H](O)[C@@H](O[C@H]4[C@H](O)[C@@H](O)[C@@H](O[C@H]5[C@H](O)[C@@H](O)[C@@H](O[C@H]6[C@H](O)[C@@H](O)[C@@H](O[C@H]7[C@H](O)[C@@H](O)[C@@H](O[C@H]1[C@H](O)[C@H]2O)O[C@@H]7CO)O[C@@H]6CO)O[C@@H]5CO)O[C@@H]4CO)O[C@@H]3CO	inactive
c1ccc2ccccc2c1	inactive
O=S(=O)(O)CC(S)CS (stereo not drawn)	inactive
O=[N+]([O-])c1c(Cl)cccc1-c1c[nH]cc1Cl	inactive
Cc1nc(NS(=O)(=O)c2ccc(N)cc2)nc(C)c1Br	inactive
CC(=O)Nc1ccc(OC(C)=O)cc1	inactive
C[C@]12CC[C@@H]3c4ccc(OC(=O)c5ccccc5)cc4CC[C@H]3[C@@H]1CC[C@@H]2O	inactive
CCN(CC)CCOc1ccc2nc(N(C)C)sc2c1	inactive
CC/C=C\C/C=C\C/C=C\CCCCCCCC(=O)O	inactive
CCOC(=O)[C@@H](N)CS	inactive
COc1ccc(C(=O)CCC(=O)O)c2ccccc12	inactive
Cc1ncc(C[n+]2csc(CCOP(=O)(O)O)c2C)c(N)n1	inactive
COC1=C(OC)C(=O)C(C/C=C(\C)CC/C=C(\C)CC/C=C(\C)CC/C=C(\C)CC/C=C(\C)CC/C=C(\C)CC/C=C(\C)CC/C=C(\C)CC/C=C(\C)CCC=C(C)C)=C(C)C1=O	inactive
N=C(N)n1cccn1	inactive
CCCCC[C@H](O)/C=C/[C@@H]1[C@H]2C/C(=C/CCCC(=O)O)O[C@H]2C[C@H]1O	inactive
CC(C)[C@H](N)C(=O)OCC(CO)OCn1cnc2c(=O)[nH]c(N)nc21 (stereo partly drawn)	inactive
FC(F)(F)C(F)(F)C(F)(F)C(F)(F)C(F)(F)C(F)(F)F	inactive
CC(=O)Oc1cc(C(F)(F)F)ccc1C(=O)O	inactive
CCCc1ccc(C(=O)O)cc1	inactive
O=C(O)COc1ccccc1/C=N/NC(=O)c1ccncc1	inactive

Source: PubChem BioAssay (NCATS)
